Test system: OVCAR3 Cells
Experiment: OVCAR3 Cell Viability Assay (CellTiter-Glo)
Type: cell-based
Settings: Homo sapiens, OVCAR-3, 144 h, 6 days incubation, read-out: OVCAR3 CTG IC50
pIC50: −log10 of the molar value.
Can you tell me pIC50 for the items I'm about to list?

Bench note: what pIC50 did O=C1c2ccc(NS(=O)(=O)CCO)cc2C2(CCC3(CC3)CC2)CN1c1ccnc(NC2CC(F)(F)C2)n1 show?
> 6.70

Using the record for CCc1ccc(N2CC3(CCC4(CC4)CC3)c3cc(NS(=O)(=O)CCO)ccc3C2=O)nc1N1CCC(F)(F)CC1 , report its pIC50.
> 6.70

Please report the recorded pIC50 for CC(c1cccc(N2CC3(CCC4(CC4)CC3)c3cc(NS(=O)(=O)CCO)ccc3C2=O)n1)N1CCC(F)(F)C1 (centres unmarked) .
5.70 to 6.70

I have this molecule here, O=C1c2ccc(NS(=O)(=O)CCO)cc2C2(CCC3(CC3)CC2)CN1c1cccc(CN2CCC(F)(F)C2)n1 , and I need its recorded pIC50.
> 6.70

May I ask what pIC50 has been recorded for N#Cc1ccc(N2CC3(CCC4(CC4)CC3)c3cc(NS(=O)(=O)CCO)ccc3C2=O)nc1S(=O)(=O)C1CCCC1 ?
> 6.70

Tell me the measured pIC50 of O=C1c2ccc(NS(=O)(=O)CCO)cc2C2(CCC3(CC3)CC2)CN1c1ccnc(NC2CCC(F)(F)C2)n1 (single isomer, unassigned) , please.
> 6.70

Given the entry O=C1c2ccc(NS(=O)(=O)CCO)cc2C2(CCC3(CC3)CC2)CN1c1cccc(OC2CC(F)(F)C2)n1 , report its measured pIC50.
5.70 to 6.70

# get_value(readout='pIC50', item= CC1(CNc2nccc(N3CC4(CCC5(CC5)CC4)c4cc(NS(=O)(=O)CCO)ccc4C3=O)n2)COC1 )
5.70 to 6.70

What measured pIC50 goes with Cc1ccc(N2CC3(CCC4(CC4)CC3)c3cc(NS(=O)(=O)CCO)ccc3C2=O)nc1N1CCC(F)(F)CC1 ?
> 6.70

Endpoint output: pIC50 of CN1CCN(C(=O)c2ccc(N3CC4(CCC5(CC5)CC4)c4cc(NS(=O)(=O)CCO)ccc4C3=O)nc2N2CCC(F)(F)CC2)CC1 . Value?
5.70 to 6.70

What does the record list as pIC50 for CC1(F)CCC2(CC1)CN(c1ccc(C#N)c(NC3CC(F)(F)C3)n1)C(=O)c1ccc(NS(=O)(=O)CCO)cc12 (centres unmarked) ?
5.70 to 6.70

====

System: OVCAR3 Cells
Experiment: OVCAR3 Cell Viability Assay (CellTiter-Glo)
Assay type: cell-based
Details: Homo sapiens, OVCAR-3, 144 h, 6 days incubation, read-out: OVCAR3 CTG IC50
pIC50: −log10 of the molar value.
READOUT NAME: pIC50

Hello, I am looking for reported pIC50 with OVCAR3 Cells for N#Cc1ccc(N2CC3(CCC4(CC4)CC3)c3cc(NS(=O)(=O)CCO)ccc3C2=O)nc1NCCC(F)(F)F . Could you help?
> 6.70

Any idea what pIC50 came out for N#Cc1ccc(N2CC3(CCC4(CCC4)CC3)c3cc(NS(=O)(=O)CCO)ccc3C2=O)nc1N1CCC(F)(F)CC1 on OVCAR3 Cells?
> 6.70

Fill in the recorded pIC50 for this compound, with OVCAR3 Cells as test system: O=C1c2ccc(NS(=O)(=O)C(F)(F)F)cc2C2(CCC3(CC3)CC2)CN1c1ccnc(NC2CC(F)(F)C2)n1
< 5.70

Enter reported pIC50 observed with OVCAR3 Cells for O=C1c2ccc(NS(=O)(=O)CCO)cc2C2(CCC3(CC3)CC2)CN1c1cccc(NC2CC(F)(F)C2)n1
> 6.70

Return pIC50 measured with OVCAR3 Cells given this compound: CN1CCC(c2ccc(N3CC4(CCC5(CC5)CC4)c4cc(NS(=O)(=O)CCO)ccc4C3=O)nc2N2CCC(F)(F)CC2)CC1
5.70 to 6.70

Record lookup: for OVCAR3 Cells, what pIC50 belongs to O=C1c2ccc(NS(=O)(=O)CCO)cc2C2(CCC(=C(F)F)CC2)CN1c1ccnc(N2CCC(F)(F)CC2)n1 (stereo not shown) ?
5.70 to 6.70

Test system OVCAR3 Cells; read-out pIC50; what value for N#Cc1ccc(N2CC3(CCC4(CC4)CC3)c3cc(NS(=O)(=O)CCO)ncc3C2=O)nc1N1CCC(F)(F)CC1 ?
> 6.70

Each recorded value in this set is attributed to patent US20260184692A1.
